test: small-molecule binders of probe aLefty1, primary screen, biochemical, small-molecule microarray, 635/667 nm fluorescence (AID 1153); conditions: higher = more signal;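 also: score merges spot fluorescence with signal-to-noise ratio from the scanned slide images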
Quick reference for composite z-score among some molecules
The answer should be written as a number, with no unit following it.

Consider the following illustrative entries.
Compound Structure String	composite z-score
COCCOC(=O)N1C(=O)[C@@]2(c3cc(C#CC4(O)CCCCCC4)ccc31)[C@H](C(=O)NC[C@H](O)c1ccccc1)[C@H]1C(=O)O[C@H](c3ccccc3)[C@H](c3ccccc3)N1[C@@H]2c1ccccc1OCCO	0.223
[N-]=[N+]=NCc1ccccc1C[C@@]1(C(=O)NCc2ccccc2)N=C(c2ccc(OCCCO)cc2)O[C@@H]1c1ccccc1	0.277

Now for the molecule whose composite z-score we want.
State the recorded composite z-score for this entry: C=CCN1C(=O)[C@@]2(O[C@@H](CCO)[C@H]([Si](C)(C)c3ccc(OC)cc3)[C@H]2C)c2cc(N(C=O)c3ccccc3)ccc21
-0.16
